Assay: qHTS assay to identify small molecule antagonists of the estrogen related receptor (ERR) signaling pathway from Tox21 library - cell viability counter screen (AID 1224834); further: nearly all actives have a fitted effect of over 30% in size
Conditions: ERR reporter cells viability, CellTiter-Fluor, 17.5 h; series mostly up to 92.4 µM
Records with an inconclusive call do not appear. Calls of active or inactive are those of the source. The call rests on the fitted dose curve; in most records, active means well fitted cell-killing curve with a large enough effect in the repeat runs; inconclusive means weak or mixed curves; inactive means flat fitted curve, though single readings scatter.
Please state which outcome applies, choosing from TRUE for active, FALSE for inactive

// known answers, use as guide
INSERT INTO measurements (molecule, class_label) VALUES
  ('CN1C(=O)c2ccc([N+](=O)[O-])cc2C1=O', 'FALSE'),
  ('CC(C)(C)NC(=O)[C@@H]1CN(Cc2cccnc2)CCN1C[C@@H](O)C[C@@H](Cc1ccccc1)C(=O)N[C@H]1c2ccccc2C[C@H]1O', 'FALSE'),
  ('C=C(C)C(=O)O', 'FALSE'),
  ('O=C(O)CCc1ccccc1', 'FALSE'),
  ('CC(COc1ccccc1)N(CCCl)Cc1ccccc1 (stereo not drawn)', 'FALSE');

Q: Hi, do you know how c1ccc2cc3c(ccc4ccccc43)cc2c1 came out in this test?
Result: FALSE

Q: Per the records of this test, what outcome belongs to O=C1CC2(CCCC2)CC(=O)N1CCCCN1CCN(c2ncccn2)CC1 ?
Result: FALSE

Q: What call does the record list for CC(C)(C)NCC(O)c1cc(O)cc(O)c1 (stereo not drawn) ?
Result: FALSE

Q: Hello, I am checking results. What call was entered for CC(C(O)c1ccc(O)cc1)N1CCC(Cc2ccccc2)CC1 (stereo not drawn) ?
Result: FALSE

Q: GET /call?item= CC(C)C(=O)c1c(C(C)C)nn2ccccc12 returns the recorded outcome of this test.
Result: FALSE

---

Test: qHTS RealTime-Glo MT Cell Viability Assay in HepG2 cells - 24 hour (AID 1224867); further: nearly all actives have a fitted effect of over 50% in size
Conditions: RealTime-Glo luminescence; series mostly up to 76.8 µM
Records with an inconclusive call do not appear. Activity calls are given as the source filed them. Calls follow the shape of the dose curve; as a rule, active = well fitted cell-killing curve with a large enough effect in the repeat runs; inconclusive = weak or mixed curves; inactive = flat fitted curve, though single readings scatter.
Give your call using only these classes: 1 (active), -1 (inactive)

Consider the following illustrative entries.
INSERT INTO measurements (compound, class_label) VALUES
  ('O=C(O)c1cccc(C(=O)O)c1', -1),
  ('O=C1OC2(c3ccc(O)cc3Oc3cc(O)ccc32)c2ccccc21', -1),
  ('CCn1c2ccccc2c2cc(N)ccc21', -1),
  ('Clc1ccc2c(c1)C(N1CCNCC1)=Nc1ccccc1O2', 1),
  ('CC(=O)OCCOCCOCCOC(C)=O', -1);

Now look at this one.
Q: Lab log entry: COc1nc(C)nc(Cl)c1NC1=NCCN1 — outcome as called in the assay?
Result: -1

---

Biological target: Estrogen receptor (Homo sapiens)
Assay: qHTS assay to identify small molecule agonists of the estrogen receptor alpha (ER-alpha) signaling pathway (AID 743075);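 further: HEK293 GripTite cells with ER-alpha and UAS-driven beta-lactamase reporter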
Conditions: HEK293 ER-alpha-UAS-bla, beta-lactamase FRET ratio, 18 h; series mostly up to 70.1 µM
Inconclusive results are not listed. Activity calls are given as the source filed them. Calls follow the shape of the full dose curve.
Use one of these outcomes when replying: Yes = active, No = inactive

See these solved cases before continuing.
INSERT INTO measurements (compound, class_label) VALUES
  ('COc1cc(C(=S)N2CCOCC2)ccc1O', 'No'),
  ('Clc1ccc2c(c1)C(N1CCNCC1)=Nc1ccccc1O2', 'No'),
  ('COC(=O)c1cccc(C(=O)OC)c1', 'No');

Q: Entry CCCCCCCCCCCCCCCCCl : call = ?
Result: No
